I'd appreciate it if you could supply CYPIR herbicidal effect rating values for the items below.
System: Cyperus iria
Assay: Preemergence weed control under flooded paddy conditions, CYPIR (Rice Flatsedge)
Type: in vivo
Conditions: Rate 0.1250 kg/ha; preemergence, flooded paddy; rated three to four weeks after treatment

See these solved cases before continuing.
molecule	CYPIR herbicidal effect rating
COC(=O)COCc1nsc2ccc(-n3c(=O)cc(C(F)(F)F)n(C)c3=O)cc12	9.0
C#CCn1c(C(F)(F)F)cc(=O)n(-c2ccc3snc(C)c3c2)c1=O	0.0

Give CYPIR herbicidal effect rating for each of the items listed below.
1. Cn1c(C(F)(F)F)cc(=O)n(-c2ccc3snc(CO)c3c2)c1=O
2. Cn1c(C(F)(F)F)cc(=O)n(-c2ccc3snc(C=C(Cl)Cl)c3c2)c1=O
3. CNC.Cn1c(C(F)(F)F)cc(=O)n(-c2ccc3snc(COCC(=O)O)c3c2)c1=O
4. CNC.Cn1c(C(F)(F)F)cc(=O)n(-c2ccc3snc(COCC(=O)NS(C)(=O)=O)c3c2)c1=O
5. COC(=O)COc1ccc(-c2nsc3ccc(-n4c(=O)cc(C(F)(F)F)n(C)c4=O)cc23)cc1
6. Cn1c(C(F)(F)F)cc(=O)n(-c2ccc3snc(CSCC(=O)O)c3c2)c1=O
7. COC(=O)C(C)Oc1c(-c2nsc3ccc(-n4c(=O)cc(C(F)(F)F)n(C)c4=O)cc23)ccc(C)c1C (stereo not drawn)

1: 2.0; 2: 9.0; 3: 7.0; 4: 9.0; 5: 4.0; 6: 8.0; 7: 6.0

Give CYPIR herbicidal effect rating for each of the items listed below.
1. C#CCOC(=O)COc1c(-c2nsc3ccc(-n4c(=O)cc(C(F)(F)F)n(C)c4=O)cc23)ccc(C)c1C
2. COC(=O)/C=C/c1nsc2ccc(-n3c(=O)cc(C(F)(F)F)n(C)c3=O)cc12
3. Cn1c(C(F)(F)F)cc(=O)n(-c2ccc3snc(C=C(Br)Br)c3c2)c1=O
4. Cc1ccc(OCC(=O)NS(=O)(=O)c2sc3ccc(Cl)cc3c2C)c(-c2nsc3ccc(-n4c(=O)cc(C(F)(F)F)n(C)c4=O)cc23)c1
5. Cn1c(C(F)(F)F)cc(=O)n(-c2ccc3snc(/C=C/C=O)c3c2)c1=O

1. 8.0
2. 2.0
3. 9.0
4. 6.0
5. 9.0

Please give the measured CYPIR herbicidal effect rating for this molecule: `C=CCOc1nc(C(F)(F)F)cc(=O)n1-c1ccc2snc(-c3cc(C)ccc3OC)c2c1` 0.0

---

System: Echinochloa oryzoides (Ard.) Fritsch.
Assay: Preemergence weed control under flooded paddy conditions, ECHORC (Watergrass (Calif.))
Type: in vivo
Conditions: 0.2500 kg/ha; preemergence weeds, flooded paddy; herbicidal effect rating 0-9, three to four weeks after treatment
I'd appreciate it if you could supply ECHORC values for the items below.

See these solved cases before continuing.
compound	result
Cn1c(C(F)(F)F)cc(=O)n(-c2ccc3snc(COC(=O)Cc4ccc(Cl)cc4)c3c2)c1=O	7.0
CC(Cl)c1nsc2ccc(-n3c(=O)cc(C(F)(F)F)n(C)c3=O)cc12 (stereo not drawn)	9.0
Cc1ccc(OCC(=O)O)c(-c2noc3cc(F)c(-n4c(=O)cc(C(F)(F)F)n(C)c4=O)cc23)c1	9.0
Cn1c(C(F)(F)F)cc(=O)n(-c2ccc3snc(C(=O)C(C)(C)C)c3c2)c1=O	9.0
COc1ccc(C)cc1-c1nsc2cc(Cl)c(-n3c(=O)cc(C(F)(F)F)n(C)c3=O)cc12	9.0
COC(=O)C(C)Oc1cc2c(cc1-c1nsc3ccc(-n4c(=O)cc(C(F)(F)F)n(C)c4=O)cc13)CCC2 (stereo not drawn)	9.0

Give ECHORC for each of the items listed below.
1. Cn1c(C(F)(F)F)cc(=O)n(-c2ccc3snc(C(=O)NOS(=O)(=O)O)c3c2)c1=O
2. CN(Cc1ccc(Cl)cc1)S(=O)(=O)NC(=O)c1nsc2ccc(-n3c(=O)cc(C(F)(F)F)n(C)c3=O)cc12
3. CCSC(=O)c1nsc2ccc(-n3c(=O)cc(C(F)(F)F)n(C)c3=O)cc12
4. Cn1c(C(F)(F)F)cc(=O)n(-c2ccc3snc(C(=O)NS(=O)(=O)Cc4ccc(OC(F)(F)F)cc4)c3c2)c1=O

[3.0, 7.0, 9.0, 7.0]

Give ECHORC for each of the items listed below.
1. Cn1c(C(F)(F)F)cc(=O)n(-c2ccc3snc(C(SCCO)SCCO)c3c2)c1=O
2. COCCOC(=O)c1nsc2ccc(-n3c(=O)cc(C(F)(F)F)n(C)c3=O)cc12
3. COc1cc(C(Br)Br)ccc1-c1nsc2ccc(-n3c(=O)cc(C(F)(F)F)n(C)c3=O)cc12
4. Cn1c(C(F)(F)F)cc(=O)n(-c2ccc3snc(C(=O)NS(=O)(=O)Cc4ccc(C(C)(C)C)cc4)c3c2)c1=O
5. Cn1c(C(F)(F)F)cc(=O)n(-c2ccc3snc(C(SCCCO)SCCCO)c3c2)c1=O

[7.0, 6.0, 9.0, 9.0, 3.0]

---

System: Monochoria vaginalis, Presl.
Assay: Preemergence weed control under flooded paddy conditions, MOOVA (Monochoria); also: meaning of each grade not given here
Type: in vivo
Conditions: Rate 0.1250 kg/ha; preemergence, flooded paddy; rated three to four weeks after treatment
measuredQuantity: herbicidal effect rating, MOOVA
Numbers only.

See these solved cases before continuing.
compound	herbicidal effect rating, MOOVA
Cn1c(C(F)(F)F)cc(=O)n(-c2cc3c(CBr)nsc3cc2F)c1=O	9.0
CCCCS(=O)(=O)NC(=O)COc1ccccc1-c1nsc2ccc(-n3c(=O)cc(C(F)(F)F)n(C)c3=O)cc12	9.0
CN(O)C(=O)c1nsc2ccc(-n3c(=O)cc(C(F)(F)F)n(C)c3=O)cc12	9.0
Cn1c(C(F)(F)F)cc(=O)n(-c2ccc3snc(C(=O)NS(=O)(=O)c4cccs4)c3c2)c1=O	9.0
COc1ccc(COC(=O)C(C)(C)c2nsc3ccc(-n4c(=O)cc(C(F)(F)F)n(C)c4=O)cc23)cc1	9.0

Give herbicidal effect rating, MOOVA for each of the items listed below.
1. Cn1c(C(F)(F)F)cc(=O)n(-c2ccc3snc(CS(=O)(=O)c4ccccc4)c3c2)c1=O
2. C=CCC(C#N)(CC=C)c1nsc2ccc(-n3c(=O)cc(C(F)(F)F)n(C)c3=O)cc12
3. Cn1c(C(F)(F)F)cc(=O)n(-c2ccc3snc(C(=O)NOCc4ccccc4)c3c2)c1=O

[8.0, 9.0, 7.0]

Give herbicidal effect rating, MOOVA for each of the items listed below.
1. Cn1c(C(F)(F)F)cc(=O)n(-c2ccc3snc(COCc4ccc(Cl)cc4Cl)c3c2)c1=O
2. CCOCN(C(=O)c1nsc2ccc(-n3c(=O)cc(C(F)(F)F)n(C)c3=O)cc12)S(C)(=O)=O
3. CCS(=O)(=O)NC(=O)C(C)Oc1ccc(C)cc1-c1nsc2ccc(-n3c(=O)cc(C(F)(F)F)n(C)c3=O)cc12 (centres unmarked)
4. Cn1c(C(F)(F)F)cc(=O)n(-c2ccc3snc(C(C)(C)C(=O)OCc4ccccc4)c3c2)c1=O
5. CC(C)S(=O)(=O)NC(=O)c1nsc2ccc(-n3c(=O)cc(C(F)(F)F)n(C)c3=O)cc12
6. CCSCCOC(=O)c1nsc2ccc(-n3c(=O)cc(C(F)(F)F)n(C)c3=O)cc12
7. Cn1c(C(F)(F)F)cc(=O)n(-c2ccc3snc(COS(C)(=O)=O)c3c2)c1=O
8. Cc1nsc2cc(F)c(-n3c(=O)cc(C(F)(F)F)n(C)c3=O)cc12

1. 4.5
2. 9.0
3. 7.0
4. 9.0
5. 9.0
6. 9.0
7. 9.0
8. 9.0

Please give the measured herbicidal effect rating, MOOVA for this compound: `C#CCC(C#N)(CC#C)c1nsc2ccc(-n3c(=O)cc(C(F)(F)F)n(C)c3=O)cc12` 9.0

---

Tested on: Sagittaria pygmaea, L.
Test: Preemergence weed control under flooded paddy conditions, SAGPY (Arrowhead (Pygmaea))
Format: in vivo
Details: 0.1250 kg/ha; preemergence weeds, flooded paddy; herbicidal effect rating 0-9, three to four weeks after treatment
measuredQuantity: SAGPY
Answers are plain numbers.

See these solved cases before continuing.
compound	resultNumber
CCSC(=O)c1nsc2ccc(-n3c(=O)cc(C(F)(F)F)n(C)c3=O)cc12 [Example 422]	3.0
Cn1c(C(F)(F)F)cc(=O)n(-c2ccc3snc(C(=O)Nc4nc(C(F)(F)F)c(Cl)s4)c3c2)c1=O [Example 439]	0.0
Cn1c(C(F)(F)F)cc(=O)n(-c2ccc3snc(C(=O)NS(=O)(=O)Cc4ccc(C(C)(C)C)cc4)c3c2)c1=O [Example 405]	5.0
CCC(C#N)c1nsc2ccc(-n3c(=O)cc(C(F)(F)F)n(C)c3=O)cc12 (stereo not drawn) [Example 444]	7.0
CCCCC(=O)c1nsc2ccc(-n3c(=O)cc(C(F)(F)F)n(C)c3=O)cc12 [Example 431]	7.5
COc1ccc(I)cc1-c1nsc2ccc(-n3c(=O)cc(C(F)(F)F)n(C)c3=O)cc12 [Example 448]	2.5

Give SAGPY for each of the items listed below.
1. Cn1c(C(F)(F)F)cc(=O)n(-c2ccc3snc(C(SCCCO)SCCCO)c3c2)c1=O [Example 424]
2. Cn1c(C(F)(F)F)cc(=O)n(-c2ccc3snc(COC4CCCCO4)c3c2)c1=O (stereo not drawn) [Example 456]
3. COC(=O)CN(C(=O)c1nsc2ccc(-n3c(=O)cc(C(F)(F)F)n(C)c3=O)cc12)S(=O)(=O)Cc1ccccc1 [Example 441]

1. 0.0
2. 2.0
3. 3.0
